Data provenance: patent US5696239A

- PROTOCOL CONDITIONS: rat, in vivo, iv, 120 min
Structures can show the parent of a compound that is named as a salt.
Exercise: state measured % Injected Dose in Liver for each of the compounds provided.
Numbers only, in %.

Solved cases (3 shown):
- COMPOUND: "Nc1ccc(OCC(=O)O)c(C(C(=O)O)N(CCN(CC(=O)O)CC(=O)O)CC(=O)O)c1 (stereo not shown) [Example 3, SODIUM SALT]"
  % Injected Dose in Liver / %: 0.22
- COMPOUND: "CC(=O)Nc1ccc(OCC(=O)O)c(C(C(=O)O)N(CCN(CC(=O)O)CC(=O)O)CC(=O)O)c1 (stereo not shown)"
  % Injected Dose in Liver / %: 0.22
- COMPOUND: "CC(=O)Nc1cc(CN(CCN(CC(=O)O)CC(=O)O)CC(=O)O)c(O)c(CN(CC(=O)O)CC(=O)O)c1"
  % Injected Dose in Liver / %: 0.37

For the next question, use this compound.
Documented % Injected Dose in Liver of CC(=O)Nc1ccc(O)c(C(NCCN(CC(=O)O)CC(=O)O)C(=O)O)c1 (stereo not shown) : 0.87

====

- PROCEDURE TEXT: Percent complex determination, yttrium complexes (Sephadex C-25 cation exchange)
- Format: physicochemical
- PROTOCOL CONDITIONS: ligand/metal 10:1, pH 7.4
- Experimental: Complexes were made by preparing a 0.0003M yttrium solution in water. (YCl3.6H2 O, 303.26 g/mole; Y(OAc)3, 12.1% H2 O). Radioactive YCl3 (Oakridge National Laboratories) was added to give the desired number of counts. […] (Ten times the amount of ligand solution was used for a 10:1 ligand to metal ratio.) The pH was then adjusted to 7.4 using microliter quantities of hydrochloric acid or sodium hydroxide. […]
Record form. Attribute: % Complex (10:1), Y. Fill in for each entry.
Numbers only, in %.

The cases that follow already have their % Complex (10:1), Y on record.
- COMPOUND: "CC(=O)Nc1cc(CN(CCN(CC(=O)O)CC(=O)O)CC(=O)O)c(O)c(CN(CC(=O)O)CC(=O)O)c1"
  METRIC: "% Complex (10:1), Y"
  READING: 99
- COMPOUND: "Nc1cc(CN(CCN(CC(=O)O)CC(=O)O)CC(=O)O)c(O)c(CN(CCN(CC(=O)O)CC(=O)O)CC(=O)O)c1"
  METRIC: "% Complex (10:1), Y"
  READING: 99
- COMPOUND: "Nc1ccc(O)c(C(C(=O)O)N(CCN(CC(=O)O)CC(=O)O)CC(=O)O)c1 (stereo not drawn)"
  METRIC: "% Complex (10:1), Y"
  READING: 99

Below are 3 compounds. Give each one its % Complex (10:1), Y.
1. CC(=O)Nc1ccc(O)c(C(NCCN(CC(=O)O)CC(=O)O)C(=O)O)c1 (stereo not drawn)
2. CC(=O)Nc1cc(CN(CCN(CC(=O)O)CC(=O)O)CC(=O)O)c(O)c(CN(CCN(CC(=O)O)CC(=O)O)CC(=O)O)c1
3. CC(=O)Nc1cc(C(C(=O)O)N(CC(=O)O)CC(=O)O)c(O)c(C(C(=O)O)N(CC(=O)O)CC(=O)O)c1 (stereo not drawn)

Output:
[98, 99, 98]

====

Can you tell me % Complex for the items I'm about to list?
- PROCEDURE TEXT: Complex study: percent yttrium complex after addition of excess metal (lability)
- Assay type: physicochemical
- PROTOCOL CONDITIONS: metal/ligand molar ratio 500, one-half hour after metal addition
Numbers only, in %.

Example results:
- COMPOUND: "Nc1cc(CN(CCN(CC(=O)O)CC(=O)O)CC(=O)O)c(O)c(CN(CCN(CC(=O)O)CC(=O)O)CC(=O)O)c1 [Example 12]"
  READING: 79
- COMPOUND: "CC(=O)Nc1ccc(OCC(=O)O)c(C(C(=O)O)N(CCN(CC(=O)O)CC(=O)O)CC(=O)O)c1 (stereo not shown) [Example 2]"
  READING: 75
- COMPOUND: "Nc1ccc(CC(CN(CCN(CC(=O)O)CC(=O)O)CC(=O)O)N(CC(=O)O)CC(=O)O)cc1 (stereo not shown) [ABDTPA]"
  READING: 70

Now, please, on to the next compound.
Field % Complex (entry O=C(O)CN(CCN(CC(=O)O)CC(=O)O)CC(=O)O [EDTA, ethylenediaminetetraacetic acid] ) reads 16
